# target: Recombinant human liver GK1 (GST-GK) (Homo sapiens, UniProt P35557)
# Construct: made in house; host or cells: E. coli
# Sequence (P35557 1-466 isoform P35557-2): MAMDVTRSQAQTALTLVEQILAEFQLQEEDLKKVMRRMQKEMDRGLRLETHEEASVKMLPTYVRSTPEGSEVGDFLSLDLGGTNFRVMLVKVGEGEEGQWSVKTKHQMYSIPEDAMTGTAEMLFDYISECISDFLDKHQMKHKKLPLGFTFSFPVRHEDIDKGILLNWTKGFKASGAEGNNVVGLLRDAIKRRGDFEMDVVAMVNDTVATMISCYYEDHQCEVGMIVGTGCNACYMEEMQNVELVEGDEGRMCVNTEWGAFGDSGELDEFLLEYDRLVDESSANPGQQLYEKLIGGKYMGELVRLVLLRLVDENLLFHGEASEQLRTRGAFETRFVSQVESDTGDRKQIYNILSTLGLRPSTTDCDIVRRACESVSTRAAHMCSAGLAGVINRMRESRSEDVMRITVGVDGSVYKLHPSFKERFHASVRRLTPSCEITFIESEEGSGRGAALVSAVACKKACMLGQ
# protocol text: In vitro glucokinase activity (G6PDH-coupled NADH assay)
# Assay type: biochemical
# settings: 30° C., 5 mM D-glucose, 10% DMSO
endpoint: SC1.5 (concentration of activator that produced a 50% increase in the activity of GK) (µM)

# compound, units symbol, result number
records = [
    ("Cl.O=C(Nc1cnccn1)[C@H](CC1CCCCC1)N1CC(Oc2c(F)cccc2Cl)=CC1=O [Example 71]", "µM", 0.058),
    ("CC(C)C[C@@H](C(=O)Nc1ccn(CC(C)(C)O)n1)N1CC(Oc2cccc(O)c2N)=CC1=O [Example 241]", "µM", 2.458),
    ("CC(C)C[C@@H](C(=O)Nc1cnccn1)N1CC(Oc2ccc(CC(C)(C)O)cc2)=CC1=O [Example 245]", "µM", 3.668),
    ("CC(C)(O)Cn1ccc(NC(=O)[C@H](C[C@H]2C[C@H](C)C2)N2CC(Oc3ccccc3Cl)=CC2=O)n1 (single isomer, unassigned) [Example 215]", "µM", 0.014),
    ("CC(C)(O)Cn1ccc(NC(=O)[C@H](CC2CCCCC2)N2CC(Oc3ccccc3C(C)(C)C)=CC2=O)n1 [Example 197]", "µM", 0.892),
    ("CCOc1ccc(F)c(OC2=CC(=O)N(C(CC3CCOCC3)C(=O)Nc3ccn(CC(C)(C)O)n3)C2)c1F (centres unmarked) [Example 256]", "µM", 0.044),
    ("CC(C)C[C@@H](C(=O)Nc1ccn(CC(C)(C)O)n1)N1CC(Oc2cccc(C#N)c2)=CC1=O [Example 138]", "µM", 3.733),
    ("CC(C)(O)Cn1ccc(NC(=O)C(CC2C3CCC2CC3)N2CC(Oc3ccccc3Cl)=CC2=O)n1 (centres unmarked) [Example 229]", "µM", 1.109),
    ("Cl.O=C(Nc1ccn(C[C@@H](O)CO)n1)[C@H](CC1CCCCC1)N1CC(Oc2c(F)ccc(Cl)c2F)=CC1=O [Example 76]", "µM", 0.017),
    ("CC(C)C[C@@H](C(=O)Nc1ccn(C[C@@H](O)CO)n1)N1CC(Oc2cccc(CC(C)(C)O)c2)=CC1=O [Example 238]", "µM", 1.125),
]

1: COc1cccc(OC2=CC(=O)N([C@@H](CC(C)C)C(=O)Nc3ccn(C[C@@H](O)CO)n3)C2)c1Cl [Example 49]
2: CC[C@H](C)CC(C(=O)Nc1ccn(C[C@@H](O)CO)n1)N1CC(Oc2ccccc2Cl)=CC1=O (mixture of isomers) [Example 249]
### Prompt Select the item with the higher value of SC1.5 (concentration of activator that produced a 50% increase in the activity of GK) from the options 1 and 2 listed. Give the label under which the chosen entry appears.
### Response 2
(2: 0.125 µM, 1: 0.079 µM)

P: CC[C@H](C)C[C@@H](C(=O)Nc1ccn(C[C@@H](O)CO)n1)N1CC(Oc2ccccc2Cl)=CC1=O (single isomer, unassigned) [Example 251]
Q: CC(C)C[C@@H](C(=O)Nc1ccn(C[C@@H](O)CO)n1)N1CC(Oc2ccccc2Br)=CC1=O [Example 137]
R: CC(C)C[C@@H](C(=O)Nc1ccn(C[C@@H]2COC(C)(C)O2)n1)N1CC(Oc2cccc(N3CCCC3)c2F)=CC1=O [Example 141]
### Prompt Rank by SC1.5 (concentration of activator that produced a 50% increase in the activity of GK) (largest to smallest). List each label, following the requested order.
### Response R, Q, P

I: CC(C)OC1=CC(=O)N([C@@H](CC2CCCC2)C(=O)Nc2cnccn2)C1 [Example 23]
II: CC(C)(O)Cn1ccc(NC(=O)[C@H](CC2CCCC2)N2CC(OC3CCCC3)=CC2=O)n1 [Example 16]
III: CCOc1cccc(OC2=CC(=O)N([C@@H](CC(C)C)C(=O)Nc3ccn(CC(C)(C)O)n3)C2)c1 [Example 163]
### Prompt Rank by SC1.5 (concentration of activator that produced a 50% increase in the activity of GK) (largest to smallest). List each label, following the requested order.
### Response I, II, III

These entries and their values trace back to patent US7741327B2.
